target: human PDE2A1 (Homo sapiens, UniProt O00408); construct: GST; purchased BPS Bioscience (San Diego, Calif.) 60020; host or cells: insect cells; assay: IMAP FP PDE assay, human PDE2A1; assay type: biochemical; settings: Lab B; read-out: Human PDE2 Ki (nM) Lab B
Sequence (O00408 1-920 isoform O00408-2): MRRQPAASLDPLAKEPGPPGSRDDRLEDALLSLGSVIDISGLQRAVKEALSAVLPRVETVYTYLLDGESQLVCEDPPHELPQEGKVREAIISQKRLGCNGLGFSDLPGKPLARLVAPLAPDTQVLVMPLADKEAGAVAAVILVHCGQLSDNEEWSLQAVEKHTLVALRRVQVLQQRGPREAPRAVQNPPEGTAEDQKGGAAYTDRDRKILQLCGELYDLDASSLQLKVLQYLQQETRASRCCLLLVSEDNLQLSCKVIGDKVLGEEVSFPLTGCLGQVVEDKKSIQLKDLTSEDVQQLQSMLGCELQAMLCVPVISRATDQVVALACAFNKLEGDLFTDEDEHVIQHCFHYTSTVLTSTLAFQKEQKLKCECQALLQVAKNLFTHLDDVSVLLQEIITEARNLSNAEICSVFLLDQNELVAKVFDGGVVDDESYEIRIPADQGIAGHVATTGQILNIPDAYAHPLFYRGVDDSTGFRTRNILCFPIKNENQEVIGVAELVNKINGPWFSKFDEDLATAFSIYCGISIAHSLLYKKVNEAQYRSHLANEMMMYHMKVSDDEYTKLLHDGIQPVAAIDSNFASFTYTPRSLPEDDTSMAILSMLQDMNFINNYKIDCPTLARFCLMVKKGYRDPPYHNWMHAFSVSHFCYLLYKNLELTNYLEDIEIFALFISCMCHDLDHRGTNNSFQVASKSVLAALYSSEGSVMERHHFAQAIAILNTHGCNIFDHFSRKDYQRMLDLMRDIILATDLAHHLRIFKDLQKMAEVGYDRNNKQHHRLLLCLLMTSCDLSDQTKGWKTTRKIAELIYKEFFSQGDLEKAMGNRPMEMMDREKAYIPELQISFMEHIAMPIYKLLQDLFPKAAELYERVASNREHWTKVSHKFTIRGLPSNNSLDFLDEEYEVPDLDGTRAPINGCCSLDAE
Readout Label: Ki

Compound: Cc1nc2c(c(C(=O)N3CCOCC3)nn2C(C)c2ccc(C(F)(F)F)cc2)c(=O)[nH]1 (single isomer, unassigned) [Example 271]
Measurement Target: human PDE2A1 (Homo sapiens, UniProt O00408)
Readout Label: Ki
Recorded Measurement: > 2960 nM
//
Compound: Cc1nc2c(c(CC(O)C(F)(F)F)nn2C(C)c2ccc(C(F)(F)F)cc2)c(=O)[nH]1 (single isomer, unassigned) [Example 239]
Measurement Target: human PDE2A1 (Homo sapiens, UniProt O00408)
Readout Label: Ki
Recorded Measurement: ~2820 nM
//
Compound: Cc1nc2c(c(CO)nn2C(C)c2ncn(CC(F)(F)F)n2)c(=O)[nH]1 (single isomer, unassigned) [Example 147]
Measurement Target: human PDE2A1 (Homo sapiens, UniProt O00408)
Readout Label: Ki
Recorded Measurement: > 2960 nM
